# Subject of test: T1, SARS-COV-2 RBD (SARS-COV-2, UniProt P0DTC2 319-539)
# T1 construct: also called WT RBD
# Assay: ELISA, RBD coated
Exercise: state measured EC50 for each of the binders provided.
Record the value in ng/mL, omitting the unit from your answer.

Exercise: Endpoint output: EC50 of C1009 (antibody, V domains shown, IgG; V domains only) VH: EVQLVESGGGLLQPGGSLRLSCAASGFSVSSNYMTWVRQAPGKGLEWVAAIYSGDSTYYVDSVKGRFIISRDNSKNTVYLHLSSLRAEDTAVYYCARLVGYDFRSGSDGGYFDYWGHGTLVTVSS VL: QSALTQPASVSGSPGQSITISCTGTSSDIGNYNLVSWYQQHPGKAPKLMIYDVSKRPSGVSNRFSGSKSGNTASLTISGLQAEDETDYYCCSYAGSSTWVFGGGTKLTVL . Value?
Solution: 1.34

Exercise: Endpoint output: EC50 of C857 (antibody, V domains shown, IgG; V domains only) VH: QVQLQESGPGLVKPSQTLSLTCTVSGGSISSGGYYWSWIRQHPGKGLEWIGYIYYSGSTYYNPSLESRVTISVDTSKNQFSLKLSSVTAADTAVYYCASGELSAFGELFPHDYWGQGTLVTVSS VL: EIVLTQSPATLSLSPGERATLSCRASQSVSTYLAWYQQKPGQAPRLLIYDASNRATGIPARFSGSGSGTDFTLTISSLEPEDFAVYYCQQRSNWLFTFGPGTKVDIK . Value?
Solution: 2.01

Exercise: Endpoint output: EC50 of C954 (antibody, V domains shown, IgG; V domains only) VH: QVQLVQSGAEVKKPGSSVKVSCKASGDTFTNYAFSWMRQAPGQGLEWMGRIIPILGIVKYSQKFQDRVRISADKSTSTAYMDLSSLRSEDTAMYYCARDSEFSTSWFSRGYHGMDVWGQGTTVTVSS VL: DIVMTQSPLSLPVTPGEPASISCRSSQSLLHGDGYNYLDWYLQKPGQSPHLLIYLGSNRTSGVSDRFSGSGSGTDFTLKISRVEAEDVGVYYCMQALQTPPTFGGGTKVEIK . Value?
Solution: 1.48

Exercise: Endpoint output: EC50 of C1000 (antibody, V domains shown, IgG; V domains only) VH: QVQLQESGPGLVKPSQTLSLSCTVSGGSISSDDYYWSWIRQPPGKGLEWIGYIYYSGSTYYNSSLKSRVSISVDTSKNQFSLKLSSVTAADTAVYYCARWKRWLQFLYFDYWGQGTLVTVSS VL: QSALTQPRSVSGSPGQSVTISCTGTSSDVGGYSFVSWYQQHPGKAPKVLIYDVDKRPSGVPDRLSGSKSGNTASLTISGLQAEDEADYYCCSYAGSYTLIFGGGTKLTVL . Value?
Solution: 3.2

Exercise: Endpoint output: EC50 of C998 (antibody, V domains shown, IgG; V domains only) VH: QVQLVQSGAEVKKPGASVKVSCKTSGYTFISYYIHWVRQAPGQGLEWMGIINPDGDNTNYAQKFQGRVTMTRDTSTSTVYMELSSLRFEDTAVYYCARGGAIPALRTAFDIWGQGTMVTVSS VL: DIQMTQSPSTLSASVGDRVTITCRASQSISNWLAWYQQKPGKAPKLLIYKASSLESGVPSRFSGSGSGTEFTLTISSLQPDDFATYYCQEYNSYYFGQGTKLEIK . Value?
Solution: 2.51
